Molecular target: PTGER2 (EP2) (Homo sapiens (Human))
Sequence (P43116 whole entry): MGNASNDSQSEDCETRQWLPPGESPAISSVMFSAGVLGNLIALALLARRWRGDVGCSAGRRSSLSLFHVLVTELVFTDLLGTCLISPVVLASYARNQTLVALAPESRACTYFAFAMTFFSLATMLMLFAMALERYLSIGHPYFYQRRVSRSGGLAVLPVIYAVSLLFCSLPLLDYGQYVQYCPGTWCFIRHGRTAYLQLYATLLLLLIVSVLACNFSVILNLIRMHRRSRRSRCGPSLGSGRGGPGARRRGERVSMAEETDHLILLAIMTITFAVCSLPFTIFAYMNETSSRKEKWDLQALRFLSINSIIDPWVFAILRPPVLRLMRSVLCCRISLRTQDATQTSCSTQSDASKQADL
Experiment: hEP2 b-arrestin assay (PathHunter HEK 293 PTGER2 b-arrestin cells)
Assay type: cell-based
Conditions: antagonistic activity, beta-arrestin assay; read-out: hEP2 b-arr IC50
measurement_label: IC50 (µM)

// below: answered compounds
> print(dat)
                           substance.smiles  measurement.label  measurement.units  experimental.result
1  CCOc1cc(-c2cc(NCCc3c(OC)cc4occc4c3C)ncn2)ccc1C(=O)O               IC50                 µM                0.008
2  CSc1cc(-c2cc(NCCc3ccc4c(c3)CCS4)ncn2)ccc1C(=O)O               IC50                 µM                0.074
3  CCOc1cc(-c2cc(NCCc3cc4cccnc4cc3F)ncn2)sc1-c1nnn[nH]1               IC50                 µM                0.109
4  CCOc1cc(-c2cc(NCCc3ccc4sccc4c3F)ncn2)sc1C(=O)O               IC50                 µM                0.007
5  CCOc1cc(-c2cc(NCCc3cc(F)c4c(c3)OCCO4)ncn2)sc1C(=O)O               IC50                 µM                0.359
6  COc1cc2c(c(F)c1CCNc1cc(-c3ccc(CC(=O)O)c(OC(F)F)c3)ncn1)OCCO2               IC50                 µM                0.082
7  CCOc1cc(-c2cc(NCCc3cc(F)c4sccc4c3)ncn2)ccc1OCCC(=O)O               IC50                 µM                0.249
8  COc1cc2c(cc1CCNc1cc(-c3ccc(C(=O)O)c(CC(C)C)c3)ncn1)OCCO2               IC50                 µM                0.245

a: C#Cc1cc2c(cc1CCNc1cc(-c3ccc(CC(=O)O)c(OC)c3)ncn1)OCCO2
b: CCOc1cc(-c2cc(NCCc3cc4c(cc3OC(F)F)OCO4)ncn2)sc1C(=O)O
## Task Kindly compare a with b and tell me which has the lower IC50 figure. API: response body contains the label of the selected item.
## Result b
(b: 0.032 µM, a: 0.102 µM)

I: COc1cc2sccc2cc1CCNc1cc(-c2ccc(C(=O)O)cc2)ncn1
II: CCOc1cc(-c2cc(NCCc3cc(F)c4sccc4c3)ncn2)sc1CC(=O)O
III: CCOc1cc(-c2cc(NCCc3cc(F)c4sccc4c3)ncn2)ccc1C(N)=O
## Task Descending sort on IC50 required. Response field: labels, in requested order.
## Result III, II, I
(III: 0.231 µM, II: 0.129 µM, I: 0.079 µM)

1: O=C(O)c1ccc(-c2cc(NCCc3ccc4scc(Cl)c4c3)ncn2)cc1OC1CCC1
2: CCOc1cc(-c2cc(NCCc3ccc4ccccc4c3C)ncn2)ccc1-c1nnn[nH]1
3: CCCCOc1cc(-c2cc(NCCc3ccc4ccccc4c3C)ncn2)cc(F)c1C(=O)O
## Task Hey, can you sort those compounds up there by IC50, smallest first? Rank the items, then write their labels in that order.
## Result 1, 2, 3

# credit: patent US11839613B2
